Value source: ChEMBL document CHEMBL4138127

Quick reference for activity at 7 h, 5 µM among some compounds
# Test system: ATP synthase
# measurement-notes: Inhibition of ATP synthase in mouse HT22 cells assessed as ATP production at 5 uM after 7 hrs by luciferase based assay relative to control
# Format: cell-based
# Parameters: scale not given: the % may be the effect or the level left
# measurement-context: read-out: Activity
Numeric answer only, unit % assumed.

• Cc1ccc(NC(=S)Nc2ncccc2OCc2ccccc2Cl)cc1 = 102
• S=C(Nc1cccc(Cl)c1)Nc1ncccc1OCc1cccc(Cl)c1 = 104
• Fc1cccc(COc2cccnc2NC(=S)Nc2cccc3ccccc23)c1 = 100

GET /values?readout=activity at 7 h, 5 µM&item= "S=C(Nc1cccc(Cl)c1)Nc1ncccc1OCc1ccccc1"
68

GET /values?readout=activity at 7 h, 5 µM&item= "S=C(Nc1ncccc1OCc1ccccc1)Nc1cccc2ccccc12"
65

GET /values?readout=activity at 7 h, 5 µM&item= "S=C(Nc1cccc(Cl)c1)Nc1ncccc1OCc1ccccc1Cl"
103

GET /values?readout=activity at 7 h, 5 µM&item= "Cc1ccc(NC(=S)Nc2nccnc2OCc2cccc(F)c2)cc1"
102

GET /values?readout=activity at 7 h, 5 µM&item= "S=C(NCc1ccccc1)Nc1nccnc1OCc1ccccc1Cl"
85.1

GET /values?readout=activity at 7 h, 5 µM&item= "CC(C)NC(=S)Nc1ncccc1OCc1ccccc1Cl"
93.7

GET /values?readout=activity at 7 h, 5 µM&item= "Cc1ccc(NC(=S)Nc2ncccc2OCc2cccc(Cl)c2)cc1"
94.5

GET /values?readout=activity at 7 h, 5 µM&item= "CC(C)(C)NC(=S)Nc1nccnc1OCc1cccc(F)c1"
99.7

GET /values?readout=activity at 7 h, 5 µM&item= "S=C(Nc1cccc(Cl)c1)Nc1nccnc1OCc1ccccc1Cl"
98

GET /values?readout=activity at 7 h, 5 µM&item= "S=C(Nc1ncccc1OCc1ccccc1Cl)Nc1cccc2ccccc12"
100

GET /values?readout=activity at 7 h, 5 µM&item= "Cc1ccc(NC(=S)Nc2ncccc2OCc2ccccc2)cc1"
66

GET /values?readout=activity at 7 h, 5 µM&item= "NC(=O)CN1CCCC1=O"
88

GET /values?readout=activity at 7 h, 5 µM&item= "S=C(Nc1ncccc1OCc1cccc(Cl)c1)Nc1cccc2ccccc12"
107
